- Tested on: Salmonella enterica serovar Typhimurium TA98
- MEASUREMENT_DESCRIPTION: Salmonella/microsome assay, TA98
- CONDITION_SET: +S9, 150 µM
READOUT_NAME: revertant His+ colonies TA98

- CC(=O)Nc1ccc(Br)cc1C(F)(F)C(=O)NCC[C@@H]1C[C@H](CC(=O)OC(C)(C)C)OC(C)(C)O1 [Compound 13d]: 34 ± 2
- CC(=O)Nc1ccccc1C(F)(F)C(=O)NCC[C@@H]1C[C@H](CC(=O)OC(C)(C)C)OC(C)(C)O1 [Compound 13a]: 27 ± 1
- CC(=O)Nc1ccc(Cl)cc1C(F)(F)C(=O)NCC[C@@H]1C[C@H](CC(=O)OC(C)(C)C)OC(C)(C)O1 [Compound 13c]: 37 ± 7

Consider the record given below.
Report revertant His+ colonies TA98 for CC(=O)Nc1ccc(C)cc1C(F)(F)C(=O)NCC[C@@H]1C[C@H](CC(=O)OC(C)(C)C)OC(C)(C)O1 [Compound 13b]
27 ± 5

----------
So I've got a bunch of compounds here, and I need their revertant His+ colonies TA102 values.
- Test system: Salmonella enterica serovar Typhimurium TA102
- CONDITION_SET: +S9, 300 µM

Known revertant His+ colonies TA102 results, listed for orientation:
- CC(=O)Nc1ccc(Br)cc1C(F)(F)C(=O)NCC[C@@H]1C[C@H](CC(=O)OC(C)(C)C)OC(C)(C)O1 [Compound 13d]: 176 ± 11
- CC(=O)Nc1ccccc1C(F)(F)C(=O)NCC[C@@H]1C[C@H](CC(=O)OC(C)(C)C)OC(C)(C)O1 [Compound 13a]: 448 ± 52
- CC(=O)Nc1ccc(Cl)cc1C(F)(F)C(=O)NCC[C@@H]1C[C@H](CC(=O)OC(C)(C)C)OC(C)(C)O1 [Compound 13c]: 403 ± 12

Attention now turns to another entry.
Please report revertant His+ colonies TA102 for the following compound: CC(=O)Nc1ccc(C)cc1C(F)(F)C(=O)NCC[C@@H]1C[C@H](CC(=O)OC(C)(C)C)OC(C)(C)O1 [Compound 13b]
372 ± 40

----------
- System: Salmonella enterica serovar Typhimurium TA97
- MEASUREMENT_DESCRIPTION: Salmonella/microsome assay, TA97
- CONDITION_SET: −S9, 15 µM
READOUT_NAME: revertant His+ colonies TA97
Give bare numbers.

Worked examples follow.
• CC(=O)Nc1ccc(Br)cc1C(F)(F)C(=O)NCC[C@@H]1C[C@H](CC(=O)OC(C)(C)C)OC(C)(C)O1 [Compound 13d] = 137
• CC(=O)Nc1ccc(Cl)cc1C(F)(F)C(=O)NCC[C@@H]1C[C@H](CC(=O)OC(C)(C)C)OC(C)(C)O1 [Compound 13c] = 84
• CC(=O)Nc1ccccc1C(F)(F)C(=O)NCC[C@@H]1C[C@H](CC(=O)OC(C)(C)C)OC(C)(C)O1 [Compound 13a] = 82

Name the recorded revertant His+ colonies TA97 of the compound listed here: CC(=O)Nc1ccc(C)cc1C(F)(F)C(=O)NCC[C@@H]1C[C@H](CC(=O)OC(C)(C)C)OC(C)(C)O1 [Compound 13b]
76

----------
- System: Salmonella enterica serovar Typhimurium TA102
- CONDITION_SET: +S9, 30 µM
Please respond with reported revertant His+ colonies TA102 for every item in the list.

• CC(=O)Nc1ccc(Br)cc1C(F)(F)C(=O)NCC[C@@H]1C[C@H](CC(=O)OC(C)(C)C)OC(C)(C)O1 [Compound 13d] = 160 ± 11
• CC(=O)Nc1ccccc1C(F)(F)C(=O)NCC[C@@H]1C[C@H](CC(=O)OC(C)(C)C)OC(C)(C)O1 [Compound 13a] = 407 ± 21
• CC(=O)Nc1ccc(C)cc1C(F)(F)C(=O)NCC[C@@H]1C[C@H](CC(=O)OC(C)(C)C)OC(C)(C)O1 [Compound 13b] = 403 ± 19

Look up and report revertant His+ colonies TA102, with Salmonella enterica serovar Typhimurium TA102 as system, for CC(=O)Nc1ccc(Cl)cc1C(F)(F)C(=O)NCC[C@@H]1C[C@H](CC(=O)OC(C)(C)C)OC(C)(C)O1 [Compound 13c]
402 ± 24
